# TGT: PRMT5/MEP50 (Homo sapiens (Human), UniProt O14744)
# Sequence (O14744 other isoform, or with tags, fused parts or gaps): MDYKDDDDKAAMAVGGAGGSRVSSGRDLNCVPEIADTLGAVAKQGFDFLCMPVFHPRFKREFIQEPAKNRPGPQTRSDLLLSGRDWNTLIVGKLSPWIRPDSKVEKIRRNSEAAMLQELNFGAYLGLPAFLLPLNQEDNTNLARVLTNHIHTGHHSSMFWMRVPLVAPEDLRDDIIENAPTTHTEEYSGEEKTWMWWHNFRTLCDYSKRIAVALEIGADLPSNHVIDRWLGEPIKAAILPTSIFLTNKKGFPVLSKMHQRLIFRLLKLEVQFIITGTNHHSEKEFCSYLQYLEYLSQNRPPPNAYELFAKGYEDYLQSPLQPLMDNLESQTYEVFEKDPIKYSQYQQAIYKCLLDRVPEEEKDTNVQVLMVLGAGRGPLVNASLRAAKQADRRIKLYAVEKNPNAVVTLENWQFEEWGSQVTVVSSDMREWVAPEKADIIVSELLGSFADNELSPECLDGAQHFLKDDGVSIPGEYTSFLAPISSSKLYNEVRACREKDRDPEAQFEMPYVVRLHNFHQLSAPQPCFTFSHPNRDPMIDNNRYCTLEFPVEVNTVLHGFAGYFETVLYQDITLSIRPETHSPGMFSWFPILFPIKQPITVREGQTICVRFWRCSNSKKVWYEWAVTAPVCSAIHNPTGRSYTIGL
# Sequence (Q9BQA1 other isoform, or with tags, fused parts or gaps partner): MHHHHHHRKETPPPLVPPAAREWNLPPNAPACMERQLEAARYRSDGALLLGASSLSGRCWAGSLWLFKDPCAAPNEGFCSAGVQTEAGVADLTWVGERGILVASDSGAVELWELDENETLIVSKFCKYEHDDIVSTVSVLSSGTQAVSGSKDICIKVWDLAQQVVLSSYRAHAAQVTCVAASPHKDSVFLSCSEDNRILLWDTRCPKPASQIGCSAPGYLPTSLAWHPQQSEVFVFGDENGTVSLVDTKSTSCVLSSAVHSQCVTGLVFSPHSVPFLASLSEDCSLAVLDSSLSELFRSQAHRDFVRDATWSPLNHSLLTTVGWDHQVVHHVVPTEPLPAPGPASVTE
# ASSAY INFO: PRMT5 Biochemical Assay (PRMT5/MEP50 enzyme assay on peptide substrate, 3H-SAM Flashplate)
# CONDITION DETAILS: PRMT5/MEP50 biochemical assay; read-out: Biochemical IC50
pIC50: −log10 of the molar value.
Catalogue of molecules with associated pIC50

MOLECULE	DATA VALUE
O=C(NCC(O)CN1CCc2ccccc2C1)c1cccc(NC2CCOCC2)c1 (centres unmarked)	> 7.00
O=C(NCC(O)CN1CCc2ccccc2C1)c1cccc(CC2CCOCC2)c1 (centres unmarked)	> 7.00
CC(=O)N1CCC(Oc2ccc(C(=O)NCC(O)CN3CCc4ccccc4C3)cc2)CC1 (centres unmarked)	> 7.00
O=C(NCC(O)CN1CCc2ccccc2C1)c1cc(NC2CCOCC2)ncn1 (centres unmarked)	> 7.00
O=C(NCC(O)CN1CCc2ccccc2C1)c1ccnc(NC2CCOCC2)c1 (centres unmarked)	> 7.00
O=C(NC[C@H](O)CN1CCc2ccccc2C1)c1ccc2cc(O)ccc2c1	> 7.00
CN1CCC(Oc2ccc(C(=O)NCC(O)CN3CCc4ccccc4C3)cc2)C1 (centres unmarked)	> 7.00
O=C(NCC(O)CN1CCc2ccccc2C1)c1ccc(N2CCS(=O)(=O)CC2)cc1 (centres unmarked)	> 7.00
CS(=O)(=O)N1CCC(Nc2cc(C(=O)NC[C@H](O)CN3CCc4ccccc4C3)ncn2)C1 (some centres unmarked)	> 7.00
CC(=O)N1CCC(Oc2cc(C(=O)NC[C@H](O)CN3CCc4ccccc4C3)ccn2)CC1	> 7.00

Quick note, pIC50 for O=C(NCC(O)CN1CCc2ccccc2C1)c1ccc(OC2CCN(CC(F)(F)F)CC2)cc1 (centres unmarked) landed at > 7.00

// pIC50 value for COCCNc1cccc(C(=O)NCC(O)CN2CCc3ccccc3C2)c1 (centres unmarked) : 6.00 to 7.00

Recorded result, Cn1nccc1C(=O)NCC(O)CN1CCc2ccccc2C1 (centres unmarked) , pIC50: 6.00 to 7.00

Looking up CC(=O)N1CC[C@@H](Nc2cccc(C(=O)NC[C@H](O)CN3CCc4ccccc4C3)c2)C1 , I found its pIC50 recorded as > 7.00

Quick note, pIC50 for O=C(NCC(O)CN1CCc2ccccc2C1)c1cccc(-c2ccccn2)c1 (centres unmarked) landed at > 7.00

Given item COc1ccc2cc(C(=O)NC[C@H](O)CN3CCc4ccccc4C3)ccc2c1 , the value recorded as its pIC50 is > 7.00

Record O=C(NC[C@H](O)CN1CCc2ccccc2C1)c1ccnc(NCC2CNCCO2)c1 (some centres unmarked) . Reported pIC50: > 7.00

Entry under test: CN(C)CCNc1cc(C(=O)NC[C@H](O)CN2CCc3ccccc3C2)ccn1 . Its pIC50 was > 7.00

Data point: COCCCOc1ccc(C(=O)NCC(O)CN2CCc3ccccc3C2)cc1 (centres unmarked) ; pIC50 = > 7.00

GET /value?item= O=C(NCC(O)CN1CCc2ccccc2C1)c1cccc(N2CCS(=O)(=O)CC2)c1 (centres unmarked) &field=pIC50 returns > 7.00

# molecule O=C(NCC(O)CN1CCc2ccccc2C1)c1cccc(NC2CCOCC2)c1F (centres unmarked) ; its pIC50 = > 7.00

O=C(NC[C@H](O)CN1CCc2ccccc2C1)c1ccnc(NCC2CC2)c1 has a reported pIC50 of > 7.00

For record O=C(NCC(O)CN1CCc2ccccc2C1)c1ccn[nH]1 (centres unmarked) the listed pIC50 is 6.00 to 7.00

Lab book: pIC50 of CC(=O)N1CCC(Nc2ccc(C(=O)NCC(O)CN3CCc4ccccc4C3)cc2)CC1 (centres unmarked) noted as > 7.00
